# Test system: Wolbachia pipientis
# assay method text: Anti-Wolbachia Cell-Based Screen
# Format: functional
# Parameters: scale not given: in the data most compounds retested in dose-response had high values
# cond: 5 µM
Screen size: about 48,000 compounds; about 13,000 (27%) showed an effect of 50% or more. Some of the results follow.
property measured: Percent Effect (%)

compound: Cc1occc1C(=O)NCC(=O)NCCOc1ccc2c(c1)CCC2
tgt: Wolbachia pipientis
property measured: Percent Effect
assay result: 29.83
--
compound: COc1cc(C)ccc1OCCN1CC[C@@]2(O)CCNC[C@H]2C1
tgt: Wolbachia pipientis
property measured: Percent Effect
assay result: 28.12
--
compound: Cc1ccccc1C(=O)NCCC(=O)NS(=O)(=O)c1cccnc1
tgt: Wolbachia pipientis
property measured: Percent Effect
assay result: -14.99
--
compound: CC(C)Cc1noc(CN2CCCN(C(=O)c3ccccc3Cl)CC2)n1
tgt: Wolbachia pipientis
property measured: Percent Effect
assay result: -15.62
--
compound: CCc1noc(CN2CCN(C(=O)N(C)C)CC2)n1
tgt: Wolbachia pipientis
property measured: Percent Effect
assay result: -9.661
--
compound: CC1=Nc2c(c(=O)[nH]n2C(C)C)C(c2cccs2)S1 (stereo not drawn)
tgt: Wolbachia pipientis
property measured: Percent Effect
assay result: -8.42
--
compound: CC1=Nc2c(c(O)nn2C(C)C)C(c2cnn(C)c2)S1 (stereo not drawn)
tgt: Wolbachia pipientis
property measured: Percent Effect
assay result: 103.6
--
compound: CCc1noc(CN2CCN(C(=O)c3ccccc3F)CC2)n1
tgt: Wolbachia pipientis
property measured: Percent Effect
assay result: 117.4
--
compound: CCOCC1CN(C(=O)CC2=CCCCC2)Cc2nnn(C)c21 (stereo not drawn)
tgt: Wolbachia pipientis
property measured: Percent Effect
assay result: 41.96
--
compound: Cc1cccc(C(C(=O)N2CC(c3cccnc3)C2)N(C)C)c1 (stereo not drawn)
tgt: Wolbachia pipientis
property measured: Percent Effect
assay result: -9.21
--
compound: CC1=Nc2c(c(O)nn2C(C)C)C(c2cn(C)nc2C)S1 (stereo not drawn)
tgt: Wolbachia pipientis
property measured: Percent Effect
assay result: 105.3
--
compound: CCc1nc(CNCC2(C(N)=O)CCOCC2)cs1
tgt: Wolbachia pipientis
property measured: Percent Effect
assay result: 1.973
--
compound: CC1=Nc2c(c(O)nn2C2CCOCC2)C(c2cccnc2)S1 (stereo not drawn)
tgt: Wolbachia pipientis
property measured: Percent Effect
assay result: 111.6
--
compound: CCNC(=O)N1C[C@@H]2OCC(=O)N(CC3CCCCC3)[C@@H]2C1
tgt: Wolbachia pipientis
property measured: Percent Effect
assay result: -5.369
--
compound: COCCCN1CCCN(C(C)C(=O)Nc2ccnn2C(C)C)CC1 (stereo not drawn)
tgt: Wolbachia pipientis
property measured: Percent Effect
assay result: -2.846
--
compound: CC(C)(NCc1cccc(C(N)=O)c1)c1ccc2c(c1)OCO2
tgt: Wolbachia pipientis
property measured: Percent Effect
assay result: 2.76
--
compound: CCc1noc(CN2CCN(C(=O)c3ccccn3)CC2)n1
tgt: Wolbachia pipientis
property measured: Percent Effect
assay result: -5.851
--
compound: O=C(CCNc1ncccn1)NCCOc1ccc2c(c1)CCC2
tgt: Wolbachia pipientis
property measured: Percent Effect
assay result: 1.956

---

# System: Wolbachia pipientis
# assay method text: Anti-Wolbachia Cell-Based Screen
# Type: functional
# Design: scale not given: in the data most compounds retested in dose-response had high values
# cond: 5 µM
Among all 48,000 compounds or so, about 13,000 (27%) showed an effect of 50% or more. Some of the results follow.
Each entry below carries its reported Percent Effect.

molecule: Cc1nnc(C(C)NCC2(c3ccc(Cl)cc3)CCCC2)o1 (stereo not given)
value units: %
Percent Effect: 5.084
--
molecule: CC(O)CN1CCN(C(=O)c2ccnc(N(C)C)c2)CC1 (stereo not given)
value units: %
Percent Effect: -11.32
--
molecule: Cc1cccc(C(C)(C)CNC(=O)CN(C)S(=O)(=O)c2cccnc2)c1
value units: %
Percent Effect: 4.775
--
molecule: NC(=O)N1CCCC(C(=O)NCCc2nc(Cc3ccccc3)no2)C1 (stereo not given)
value units: %
Percent Effect: 5.914
--
molecule: O=C(Nc1cccnc1)N1CCC(n2ccc(C(F)(F)F)n2)CC1
value units: %
Percent Effect: -10.86
--
molecule: CCN1C(=O)[C@H]2CN(CC(C)C)C[C@H]2C12CCN(C(=O)NC(C)C)CC2.O=C(O)C(F)(F)F
value units: %
Percent Effect: -7.35
--
molecule: CC1(C)CN(Cc2c[nH]c(CC3CCCC3)n2)CC[C@]1(C)O
value units: %
Percent Effect: -6.969
--
molecule: Cc1nnc(C(C)N2CCc3[nH]c4ccc(Cl)cc4c3C2)o1 (stereo not given)
value units: %
Percent Effect: 96.73
--
molecule: CCN(CC)c1ccc(C(=O)N(C)Cc2c(C)noc2C)cn1
value units: %
Percent Effect: 3.136
--
molecule: Cc1nc(C)c2c(n1)CCN(Cc1ccco1)CC2
value units: %
Percent Effect: -8.406
--
molecule: CCN1CC[C@@]2(C(=O)N(C)C)CCN(C(=O)NC(C)C)CC[C@@H]12
value units: %
Percent Effect: -5.445
--
molecule: Cc1nnc(C(C)N2CCc3[nH]c4ccccc4c3C2)o1 (stereo not given)
value units: %
Percent Effect: 119.5
--
molecule: Cc1cc(CN2CCc3nc(C(C)C)nc(O)c3CC2)c(C)s1
value units: %
Percent Effect: 120.7
--
molecule: Cc1nnc2n1CCN(C(C)c1nnc(-c3cccs3)o1)C2 (stereo not given)
value units: %
Percent Effect: 4.366
--
molecule: COc1ccccc1Oc1ncccc1CNC(=O)C1COC(=O)N1 (stereo not given)
value units: %
Percent Effect: 98.82
--
molecule: CC(C)C(=O)N1CC[C@H]2N(C)CC[C@@]2(C(=O)Nc2cccnc2)CC1.O=C(O)C(F)(F)F.O=C(O)C(F)(F)F
value units: %
Percent Effect: 118.9
--
molecule: Cc1ccc(Oc2ncccc2CNC(=O)C2COC(=O)N2)c(F)c1F (stereo not given)
value units: %
Percent Effect: 65.92
--
molecule: CN(CC(=O)NCCC#N)C(c1ccccc1)c1ccccc1
value units: %
Percent Effect: -3.756
--
molecule: COC(=O)c1cccc(S(=O)(=O)NC(=O)COC2CCCC2)c1
value units: %
Percent Effect: 86.25
--
molecule: CC(=O)N1CCC(N2CC[C@H](c3nc4cc(C)ccc4o3)C2)CC1
value units: %
Percent Effect: -0.1678
--
molecule: CC(C)C(=O)N1CCc2nc(C(=O)Nc3cccnc3)sc2CC1
value units: %
Percent Effect: 0.3042
--
molecule: Cc1cccc(-c2nnc(C(C)N3CCn4c(C)nnc4C3)o2)c1 (stereo not given)
value units: %
Percent Effect: 3.143
--
molecule: Cc1nc(CN2CCN(C(=O)c3ccn(C)c(=O)c3)CC2)cs1
value units: %
Percent Effect: 11.68
--
molecule: CCc1cc(C)nc(N2CCN(C(C)c3nc(C)no3)CC2)n1 (stereo not given)
value units: %
Percent Effect: 7.355
--
molecule: CCN1CC[C@@]2(C(=O)N3CCOCC3)CCN(C(=O)CC(C)C)CC[C@@H]12.O=C(O)C(F)(F)F
value units: %
Percent Effect: -11.51
--
molecule: Cn1cc(N2CCN(c3ccc(C#N)cc3F)CC2=O)cn1
value units: %
Percent Effect: -27.57
--
molecule: Cc1nc(O)c2c(n1)CCN(Cc1cc(C)sc1C)CC2
value units: %
Percent Effect: 92.9
--
molecule: Cc1noc(C(C)N2CCc3[nH]c4ccc(Cl)cc4c3C2)n1 (stereo not given)
value units: %
Percent Effect: 55.06
--
molecule: Cc1ccc(S(=O)(=O)N(C)CC(N)=O)c(Cl)c1
value units: %
Percent Effect: 2.18
--
molecule: Cc1nc2c(c(=O)n1C)CCN(Cc1cc3ccccc3[nH]1)CC2
value units: %
Percent Effect: -25.51
--
molecule: Cc1nc(CN2CCN(C(=O)c3sccc3C3CC3)CC2)cs1
value units: %
Percent Effect: -3.645
--
molecule: COC(=O)c1cccc(S(=O)(=O)NC(=O)c2ccccc2F)c1
value units: %
Percent Effect: 8.807
--
molecule: Cn1cnnc1S(=O)(=O)Cc1cc(Cl)c2c(c1)OCCO2
value units: %
Percent Effect: -9.232
--
molecule: Cc1nn(C)c2nc(N(C)CCN(C)C3CCCC3)sc12
value units: %
Percent Effect: -5.269
--
molecule: Cc1nc(C)c(C(=O)NCc2nc3cccc(C)c3n2C)o1
value units: %
Percent Effect: 31.6
--
molecule: COC(=O)c1cccc(S(=O)(=O)Nc2ncc(C)s2)c1
value units: %
Percent Effect: -16.51
--
molecule: CCCn1nc(C)c(-c2cncn2CCN(C)C2CCCC2)c1C.Cl
value units: %
Percent Effect: 99.02
--
molecule: CS(=O)(=O)N1C[C@H](C(=O)Nc2cccnc2)[C@@H]2CCO[C@@H]2C1.O=C(O)C(F)(F)F
value units: %
Percent Effect: -6.028
--
molecule: Cc1cc(CN[C@@H](C)C(N)=O)c(C)s1
value units: %
Percent Effect: 8.124
--
molecule: Cc1noc(C(C)N2CCC(c3nc4ccccc4[nH]3)CC2)n1 (stereo not given)
value units: %
Percent Effect: -1.749
